Numbers sourced from patent US20230072683A1.

compounds and their reported inhibition at 0.01 µM
Target: DNA-PK(h) (Homo sapiens)
Test: Evaluation of inhibitory activity against DNA-PK (HTRF kinase assay, GST-cMyc-p53 substrate)
Type: biochemical
Details: compound concentration 0.01 μM; read-out: EXP_VALUE(% Inhibition) DNA-PK(h) 0.01 μM
Reply with just the number (in %).

Below: 5 compounds and their reported inhibition at 0.01 µM.
INSERT INTO results (compound, observed_property, unit_name, quantitative_result) VALUES
  ('COc1ncc(-c2cccc3c(Cl)c([C@H](C)Nc4ncnc5[nH]ccc(=O)c45)n(-c4ccccc4)c(=O)c23)cc1F [Example 186]', 'inhibition at 0.01 µM', '%', 49),
  ('COc1ccc(-c2cccc3c(Cl)c([C@H](C)Nc4ncnc5[nH]ccc(=O)c45)n(-c4ccccc4)c(=O)c23)cn1 [Example 133]', 'inhibition at 0.01 µM', '%', 79),
  ('C[C@H](Nc1ncnc2[nH]ccc(=O)c12)c1c(Cl)c2cccc(C(=O)NCCN3CCOCC3)c2c(=O)n1-c1ccccc1 [Example 281]', 'inhibition at 0.01 µM', '%', 13),
  ('C[C@H](Nc1ncnc2[nH]ccc(=O)c12)c1c(Cl)c2cccc(-c3ccnc(N4CCOCC4)c3)c2c(=O)n1-c1ccccc1 [Example 190]', 'inhibition at 0.01 µM', '%', 85),
  ('C[C@H](Nc1ncnc2[nH]ccc(=O)c12)c1c(Cl)c2cccc(-c3ccc([Si](C)(C)C)cc3)c2c(=O)n1-c1ccccc1 [Example 178]', 'inhibition at 0.01 µM', '%', -4);

Given item CCc1cccc2c(Cl)c([C@H](C)Nc3ncnc4[nH]ccc(=O)c34)n(-c3ccccc3)c(=O)c12 [Example 354] , the value recorded as its inhibition at 0.01 µM is 63

Given item C[C@H](Nc1ncnc2[nH]ccc(=O)c12)c1c(Cl)c2cccc(Sc3ccc(Cl)cc3)c2c(=O)n1-c1ccccc1 [Example 371] , the value recorded as its inhibition at 0.01 µM is 0

Given item COc1cc(-c2cccc3c(Cl)c([C@H](C)Nc4ncnc5[nH]ccc(=O)c45)n(-c4ccccc4)c(=O)c23)nc(OC)n1 [Example 49] , the value recorded as its inhibition at 0.01 µM is -3

Given item C[C@H](Nc1ncnc2[nH]ccc(=O)c12)c1c(Cl)c2cccc(C(=O)NC3COC3)c2c(=O)n1-c1ccccc1 [Example 276] , the value recorded as its inhibition at 0.01 µM is 29

Given item C[C@H](Nc1ncnc2[nH]ccc(=O)c12)c1c(Cl)c2cccc(N(C)c3ccccn3)c2c(=O)n1-c1ccccc1 [Example 349] , the value recorded as its inhibition at 0.01 µM is 15

Given item C[C@H](Nc1ncnc2[nH]ccc(=O)c12)c1c(Cl)c2cccc(-c3ccc(C(F)(F)F)nc3)c2c(=O)n1-c1ccccc1 [Example 181] , the value recorded as its inhibition at 0.01 µM is 61

Given item C[C@H](Nc1ncnc2[nH]ccc(=O)c12)c1c(Cl)c2cccc(-c3ccc(C=O)cc3)c2c(=O)n1-c1ccccc1 [Example 85] , the value recorded as its inhibition at 0.01 µM is 56

Given item Cc1nc(-c2ccc(-c3cccc4c(Cl)c([C@H](C)Nc5ncnc6[nH]ccc(=O)c56)n(-c5ccccc5)c(=O)c34)cc2)no1 [Example 160] , the value recorded as its inhibition at 0.01 µM is 74

====

Target: DNA-PK(h) (Homo sapiens, UniProt P78527)
Assay: Evaluation of inhibitory activity against DNA-PK (HTRF kinase assay, GST-cMyc-p53 substrate)
Assay type: biochemical
Conditions: compound concentration 0.1 μM; read-out: EXP_VALUE(% Inhibition) DNA-PK(h) 0.1 μM
compounds and their reported inhibition at 0.1 µM
Reply with just the number (in %).

Below: 6 compounds and their reported inhibition at 0.1 µM.
INSERT INTO results (compound, unit_name, quantitative_result) VALUES
  ('C[C@H](Nc1ncnc2[nH]ccc(=O)c12)c1c(Cl)c2cccc(N3CCc4ccccc4C3)c2c(=O)n1-c1ccccc1 [Example 7]', '%', 62),
  ('C[C@H](Nc1ncnc2[nH]ccc(=O)c12)c1c(Cl)c2cccc(C#Cc3nccs3)c2c(=O)n1-c1ccccc1 [Example 312]', '%', 84.3),
  ('C[C@H](Nc1ncnc2[nH]ccc(=O)c12)c1c(Cl)c2cccc(C(N)=O)c2c(=O)n1-c1ccccc1 [Example 291]', '%', 78),
  ('C[C@H](Nc1ncnc2[nH]ccc(=O)c12)c1c(Cl)c2cccc(N3CCC[C@H]3CN3CCCC3)c2c(=O)n1-c1ccccc1 [Example 338]', '%', 35),
  ('C[C@H](Nc1ncnc2[nH]ccc(=O)c12)c1c(Br)c2cccc(-c3cnn(C)c3)c2c(=O)n1-c1ccccc1 [Example 19]', '%', 98),
  ('C[C@H](Nc1ncnc2[nH]ccc(=O)c12)c1c(Cl)c2cccc(C#Cc3ccnn3C)c2c(=O)n1-c1ccccc1 [Example 311]', '%', 82.2);

Given item C[C@H](Nc1ncnc2[nH]ccc(=O)c12)c1c(Cl)c2cccc(-c3ccc(-c4ccncc4)cc3)c2c(=O)n1-c1ccccc1 [Example 105] , the value recorded as its inhibition at 0.1 µM is 75

Given item Cc1ncc(-c2cccc3c(Cl)c([C@H](C)Nc4ncnc5[nH]ccc(=O)c45)n(-c4ccccc4)c(=O)c23)cn1 [Example 136] , the value recorded as its inhibition at 0.1 µM is 97

Given item CSc1ccc(-c2cccc3c(Cl)c([C@H](C)Nc4ncnc5[nH]ccc(=O)c45)n(-c4ccccc4)c(=O)c23)cc1 [Example 143] , the value recorded as its inhibition at 0.1 µM is 80

====

molecules and their reported inhibition at 0.01 µM
Biological target: PI3K-δ (PI3K(p1108/p857) (h)) (Homo sapiens, UniProt O00329)
Sequence (O00329 whole entry): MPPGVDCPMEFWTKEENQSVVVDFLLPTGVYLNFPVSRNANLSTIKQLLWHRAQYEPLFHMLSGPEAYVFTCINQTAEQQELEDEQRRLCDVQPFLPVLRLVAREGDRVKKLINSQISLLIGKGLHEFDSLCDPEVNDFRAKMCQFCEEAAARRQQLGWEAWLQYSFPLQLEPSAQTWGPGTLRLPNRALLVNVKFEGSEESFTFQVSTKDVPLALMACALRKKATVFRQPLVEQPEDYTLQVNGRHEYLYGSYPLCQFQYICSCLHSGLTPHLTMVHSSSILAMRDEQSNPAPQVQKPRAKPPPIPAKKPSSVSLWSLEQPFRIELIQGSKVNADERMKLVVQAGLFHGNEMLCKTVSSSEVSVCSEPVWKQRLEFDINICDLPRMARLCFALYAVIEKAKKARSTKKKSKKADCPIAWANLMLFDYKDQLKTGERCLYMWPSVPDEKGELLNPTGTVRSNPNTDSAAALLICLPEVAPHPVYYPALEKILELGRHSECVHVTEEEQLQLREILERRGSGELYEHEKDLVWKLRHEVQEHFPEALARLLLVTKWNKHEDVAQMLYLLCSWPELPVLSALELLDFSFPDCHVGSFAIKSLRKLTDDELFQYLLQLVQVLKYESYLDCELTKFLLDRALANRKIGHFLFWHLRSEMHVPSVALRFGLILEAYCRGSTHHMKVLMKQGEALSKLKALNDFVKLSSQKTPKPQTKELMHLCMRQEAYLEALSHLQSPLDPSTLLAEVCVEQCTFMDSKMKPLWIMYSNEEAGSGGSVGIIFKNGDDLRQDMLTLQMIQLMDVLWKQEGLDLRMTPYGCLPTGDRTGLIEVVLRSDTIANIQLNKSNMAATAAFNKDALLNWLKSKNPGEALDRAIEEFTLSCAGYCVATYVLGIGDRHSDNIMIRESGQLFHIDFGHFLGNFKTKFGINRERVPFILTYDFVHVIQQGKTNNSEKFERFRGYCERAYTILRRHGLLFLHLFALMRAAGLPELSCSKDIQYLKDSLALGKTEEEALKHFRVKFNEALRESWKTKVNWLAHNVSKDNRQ
Sequence (P27986 whole entry partner): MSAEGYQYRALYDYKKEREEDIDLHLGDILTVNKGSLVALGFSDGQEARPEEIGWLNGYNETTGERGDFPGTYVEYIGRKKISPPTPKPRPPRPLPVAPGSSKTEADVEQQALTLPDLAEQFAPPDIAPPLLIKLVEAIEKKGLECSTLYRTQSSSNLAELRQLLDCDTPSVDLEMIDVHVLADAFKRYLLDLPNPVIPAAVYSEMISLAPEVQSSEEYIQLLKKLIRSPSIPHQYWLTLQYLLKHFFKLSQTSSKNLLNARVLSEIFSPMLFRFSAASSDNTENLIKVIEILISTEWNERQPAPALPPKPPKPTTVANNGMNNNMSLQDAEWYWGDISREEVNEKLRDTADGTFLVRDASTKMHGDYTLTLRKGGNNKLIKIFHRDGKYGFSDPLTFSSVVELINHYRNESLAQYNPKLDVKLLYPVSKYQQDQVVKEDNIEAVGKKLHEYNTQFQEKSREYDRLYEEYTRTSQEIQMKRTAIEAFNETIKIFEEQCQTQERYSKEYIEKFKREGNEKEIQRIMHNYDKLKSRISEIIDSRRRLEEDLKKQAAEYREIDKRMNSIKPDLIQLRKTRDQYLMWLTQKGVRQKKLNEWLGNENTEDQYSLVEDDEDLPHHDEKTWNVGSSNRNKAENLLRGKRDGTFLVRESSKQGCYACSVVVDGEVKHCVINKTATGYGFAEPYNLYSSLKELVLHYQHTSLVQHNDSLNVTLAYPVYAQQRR
Experiment: Evaluation of inhibitory activity against PI3K-δ (HTRF kinase assay)
Type: biochemical
Details: compound concentration 0.01 μM; read-out: EXP_VALUE(% Inhibition) PI3K-δ 0.01 μM
Numeric answer plus unit only.

Below: 3 molecules and their reported inhibition at 0.01 µM.
INSERT INTO results (smiles, target_or_system, result) VALUES
  ('C[C@H](Nc1ncnc2[nH]ccc(=O)c12)c1c(Cl)c2cccc(N3CCC(c4ccccc4)CC3)c2c(=O)n1-c1ccccc1', 'PI3K-δ (PI3K(p1108/p857) (h)) (Homo sapiens, UniProt O00329)', '6%'),
  ('C[C@H](Nc1ncnc2[nH]ccc(=O)c12)c1c(Br)c2cccc(-c3ccc(F)cc3)c2c(=O)n1-c1ccccc1', 'PI3K-δ (PI3K(p1108/p857) (h)) (Homo sapiens, UniProt O00329)', '80%'),
  ('Cc1c(F)cccc1-c1cccc2c(Cl)c([C@H](C)Nc3ncnc4[nH]ccc(=O)c34)n(-c3ccccc3)c(=O)c12', 'PI3K-δ (PI3K(p1108/p857) (h)) (Homo sapiens, UniProt O00329)', '61%');

Note to self: inhibition at 0.01 µM of C[C@H](Nc1ncnc2[nH]ccc(=O)c12)c1c(Cl)c2cccc(-c3ccc(S(C)(=O)=O)cc3)c2c(=O)n1-c1ccccc1 with PI3K-δ (PI3K(p1108/p857) (h)) (Homo sapiens, UniProt O00329) was 96%

Note to self: inhibition at 0.01 µM of C[C@H](Nc1ncnc2[nH]ccc(=O)c12)c1c(Cl)c2cccc(-c3ccc4nsnc4c3)c2c(=O)n1-c1ccccc1 with PI3K-δ (PI3K(p1108/p857) (h)) (Homo sapiens, UniProt O00329) was 77%

Note to self: inhibition at 0.01 µM of C[C@H](Nc1ncnc2[nH]ccc(=O)c12)c1c(Cl)c2cccc(N3CCC(NC(=O)OC(C)(C)C)CC3)c2c(=O)n1-c1ccccc1 with PI3K-δ (PI3K(p1108/p857) (h)) (Homo sapiens, UniProt O00329) was 45%

====

Molecular target: PI3K-δ (PI3K(p1108/p857) (h)) (Homo sapiens)
Experiment: Evaluation of inhibitory activity against PI3K-δ (HTRF kinase assay)
Type: biochemical
Conditions: compound concentration 0.1 μM; read-out: EXP_VALUE(% Inhibition) PI3K-δ 0.1 μM
compounds and their reported inhibition at 0.1 µM
Numeric answer plus unit only.

Below: 6 compounds and their reported inhibition at 0.1 µM.
INSERT INTO assay_data (smiles, observed_property, result) VALUES
  ('C[C@H](Nc1ncnc2[nH]ccc(=O)c12)c1c(Cl)c2cccc(C3CC3)c2c(=O)n1-c1ccccc1', 'inhibition at 0.1 µM', '103%'),
  ('COc1ccc(-c2cccc3c(Cl)c([C@H](C)Nc4ncnc5[nH]ccc(=O)c45)n(-c4ccccc4)c(=O)c23)cn1', 'inhibition at 0.1 µM', '88%'),
  ('Cc1ccc(-c2cccc3c(Cl)c([C@H](C)Nc4ncnc5[nH]ccc(=O)c45)n(-c4ccccc4)c(=O)c23)cc1', 'inhibition at 0.1 µM', '50.9%'),
  ('C[C@H](Nc1ncnc2[nH]ccc(=O)c12)c1c(Cl)c2cccc(C#N)c2c(=O)n1-c1ccccc1', 'inhibition at 0.1 µM', '87%'),
  ('C[C@H](Nc1ncnc2[nH]ccc(=O)c12)c1c(Cl)c2cccc(NC3CC3)c2c(=O)n1-c1ccccc1', 'inhibition at 0.1 µM', '65%'),
  ('C[C@H](Nc1ncnc2[nH]ccc(=O)c12)c1c(Cl)c2cccc(N3CCCC3)c2c(=O)n1-c1ccccc1', 'inhibition at 0.1 µM', '97%');

Alright, here's another compound for you.
Given item C[C@H](Nc1ncnc2[nH]ccc(=O)c12)c1c(Cl)c2cccc(-c3ccc4ncccc4c3)c2c(=O)n1-c1ccccc1 , the value recorded as its inhibition at 0.1 µM is 95%
